Data origin, for the record: paper PMC5655776

format: in vivo, human; conditions: human, plasma, po, 15 mg, median tmax, 15 mg single oral dose; across all groups
MEASURED_PROPERTY: Tmax

Tmax measured on CCOc1ccc(Cc2cc([C@]34OC[C@](CO)(O3)[C@@H](O)[C@H](O)[C@H]4O)ccc2Cl)cc1 = 1 to 1.51 h
